Experiment: recombinant barcode read abundance after kanamycin selection (control-corrected) (log10(CPM+1)); higher = more efficient recombination; sequences stand for … in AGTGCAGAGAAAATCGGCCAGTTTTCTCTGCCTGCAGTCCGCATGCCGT…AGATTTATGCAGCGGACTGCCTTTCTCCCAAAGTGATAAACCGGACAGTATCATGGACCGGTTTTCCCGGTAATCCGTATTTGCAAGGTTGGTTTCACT; site = the 11-nt target;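 further: IS621 recombinase and bridge RNA in Escherichia coli cells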
Each entry gets Not fulfilled if its recombinant barcode read abundance (log10) stays under 0.6, and Fulfilled if its recombinant barcode read abundance (log10) is 0.6 or above.

Worked cases, answers included:
>  <Residue String>
GGACACTCTTGGGTTCTAACCTGTTGCCT (site GGACACTCTAG)

>  <Classification>
Fulfilled

$$$$
>  <Residue String>
TACATCCCTTGGGTTCTAACCTGTTGCCG (site TACATCCCTAG)

>  <Classification>
Not fulfilled

$$$$

Reported recombinant barcode read abundance (log10) reaches at least 0.6 for ACGAGGACTTGGGTTCTAACCTGTTGCCG (site ACGAAGACTCG) ?
Not fulfilled

Reported recombinant barcode read abundance (log10) reaches at least 0.6 for CTAGCTCCTTGGGTTCTAACCTGTTGCAG (site CTAGCGGCTCT) ?
Not fulfilled

Reported recombinant barcode read abundance (log10) reaches at least 0.6 for CTAGCGACTTGGGTTCTAACCTGTTGCGG (site CTAGCGACTCC) ?
Fulfilled

Reported recombinant barcode read abundance (log10) reaches at least 0.6 for TACGCTCCTTGGGTTCTAACCTGTTGCGT (site TACGCTCCTAA) ?
Not fulfilled

Reported recombinant barcode read abundance (log10) reaches at least 0.6 for GGGTCGCCTTGGGTTCTAACCTGTTGCTT (site GGGTCGCCTAA) ?
Not fulfilled

Reported recombinant barcode read abundance (log10) reaches at least 0.6 for TATGTGGCTTGGGTTCTAACCTGTTGCCT (site TATGGGGCTAG) ?
Not fulfilled

Reported recombinant barcode read abundance (log10) reaches at least 0.6 for CAAGTTCCTTGGGTTCTAACCTGTTGCCT (site CAAGTGCCTAG) ?
Fulfilled

Reported recombinant barcode read abundance (log10) reaches at least 0.6 for ACTAGTCCTTGGGTTCTAACCTGTTGCAT (site ACTAGTCCTAT) ?
Fulfilled
